molecular target: TNK2 (human); assay: radiometric filter-binding kinase assay, Kinase HotSpot; settings: compound 0.5 µM; ATP 10 µM
residual activity strictly under 80% means yes; at 80% or over means no.

Confirm or reject: residual activity of O=C(c1ccccc1)c1ccc(N2CCOCC2)cc1O lies strictly below 80%
no

Confirm or reject: residual activity of COc1cc2ncnc(Nc3ccc(O)c(Br)c3)c2cc1OC lies strictly below 80%
yes

Confirm or reject: residual activity of O=C1NC(=O)c2c1c1c3ccccc3[nH]c1c1[nH]c3cc(Br)ccc3c21 lies strictly below 80%
no

Confirm or reject: residual activity of CCOc1cc2ncnc(Nc3cccc(Br)c3)c2cc1OCC lies strictly below 80%
yes

Confirm or reject: residual activity of Cn1cc(/C=C2\C(=O)Nc3ccc(S(N)(=O)=O)cc32)c2ccccc21 lies strictly below 80%
yes

Confirm or reject: residual activity of Cc1cc(Nc2nc(-c3ccccc3)nc3ccccc23)n[nH]1 lies strictly below 80%
yes

Confirm or reject: residual activity of COc1cc2c(cc1OC)-c1[nH]nc(Nc3cccc(F)c3)c1C2 lies strictly below 80%
yes

Confirm or reject: residual activity of O=S(=O)(NCCNC/C=C/c1ccc(Br)cc1)c1cccc2cnccc12 lies strictly below 80%
no

Confirm or reject: residual activity of O=c1cc(N2CCOCC2)oc2c(-c3ccccc3)cccc12 lies strictly below 80%
no

Confirm or reject: residual activity of N#C/C(=C1/Nc2ccccc2S1)c1ccnc(NCCc2cccnc2)n1 lies strictly below 80%
yes

Confirm or reject: residual activity of N#CCCc1ccc2c(c1)-c1[nH]c3ccc([N+](=O)[O-])cc3c1CC(=O)N2 lies strictly below 80%
yes

Confirm or reject: residual activity of CCc1nc(-c2ccc(OC)cc2)[nH]c1-c1ccncc1 lies strictly below 80%
no

Confirm or reject: residual activity of O=c1c(-c2ccc(F)cc2)c(-c2ccncc2)[nH]n1-c1ccc(Cl)cc1 lies strictly below 80%
no

Confirm or reject: residual activity of COc1cc2c(N3CCN(C(=O)Nc4ccc(OC(C)C)cc4)CC3)ncnc2cc1OCCCN1CCCCC1 lies strictly below 80%
no

Confirm or reject: residual activity of O=c1[nH]c2ccccc2n1C1CCN(Cc2ccc(-c3nc4cc5[nH]cnc5cc4nc3-c3ccccc3)cc2)CC1 lies strictly below 80%
no

Confirm or reject: residual activity of Nc1ncnc2c1cnn2-c1ccccc1 lies strictly below 80%
no

Confirm or reject: residual activity of O=C1NC(=O)c2cc(Nc3ccc(F)cc3)c(Nc3ccc(F)cc3)cc21 lies strictly below 80%
no

Confirm or reject: residual activity of c1ccc(-c2cnc(Nc3ccc(OCCN4CCCC4)cc3)s2)cc1 lies strictly below 80%
yes

Confirm or reject: residual activity of COc1cc2c(Nc3ccc(Br)cc3F)ncnc2cc1OCC1CCN(C)CC1 lies strictly below 80%
no
